Recorded values, source ChEMBL document CHEMBL3351746.

Procedure details: Selectivity index, ratio of IC50 for human KB cells to IC50 for human KBVIN cells
Format: functional
Measured attribute: Ratio IC50

Here is how some compounds turned out for Ratio IC50.
O=C(/C=C/C=C/CCc1ccc2c(c1)OCO2)N1CCCC1 : >1.1
COc1cc(CCCCCCC(=O)N2CCCC2)cc(OC)c1OC : 3.1
COc1cc(CCCC/C=C/C(=O)N2CCCC2)cc(OC)c1OC : 2.7
COc1cc(CCCCCCC(=O)N2CCCCC2)cc(OC)c1OC : 2.8
O=C(/C=C/CCCCc1ccc2c(c1)OCO2)N1CCCC1 : 1.1

Request the reported Ratio IC50 associated with O=C(/C=C/C=C/CCCCCCc1ccc2c(c1)OCO2)N1CCCC1
1.1

Same thing, different compound: O=C(CCCCCCC/C=C/c1ccc2c(c1)OCO2)N1CCCC1
1.1

Can you check O=C(/C=C/C=C/CCCC/C=C/c1ccc2c(c1)OCO2)N1CCCC1 next?
1.1

One more compound: O=C(/C=C/CCCCCC/C=C/c1ccc2c(c1)OCO2)N1CCCC1
1.3

Another compound: COc1cc(CCCC/C=C/C(=O)N2CCCCC2)cc(OC)c1OC
3.8

# repeat for O=C(CCCCCC/C=C/c1ccc2c(c1)OCO2)N1CCCC1
1.2
